In this section we review reported Ratio IC50 values for a set of compounds.
# Species on record: Macaca mulatta
# Protocol Description: Selectivity for rhesus monkey DAT over rhesus monkey SERT
Measure: Ratio IC50

>>> quantitative_result("COC(=O)[C@@H]1C2CCC(C[C@H]1c1ccc(F)c(Cl)c1)S2 (stereo not given in full)")
68
>>> quantitative_result("COC(=O)[C@@H]1C2CCC(C[C@H]1c1ccc(I)cc1)S2 (stereo not given in full)")
8
>>> quantitative_result("COC(=O)C1=C(c2ccc(Cl)c(Cl)c2)CC2CC[C@H]1N2C")
723
>>> quantitative_result("COC(=O)[C@@H]1C2CCC(C[C@H]1c1ccccc1)[S+]2[O-] (stereo not given in full)")
100
>>> quantitative_result("COC(=O)C1=C(c2ccc(Cl)c(Cl)c2)CC2CC[C@H]1O2")
460
>>> quantitative_result("COC(=O)[C@@H]1C2CCC(C[C@@H]1c1ccc(Cl)c(Cl)c1)S2 (stereo not given in full)")
1.5
>>> quantitative_result("COC(=O)[C@@H]1[C@H]2CCC(C[C@H]1c1ccc(Cl)c(Cl)c1)S2")
8
>>> quantitative_result("COC(=O)[C@@H]1C2CCC(C[C@@H]1c1ccc(Cl)cc1)S2 (stereo not given in full)")
3.4
>>> quantitative_result("COC(=O)[C@@H]1[C@@H]2[C@H](O)CC(C[C@H]1c1ccc(Cl)c(Cl)c1)N2C")
11

====

Transporter (Macaca mulatta) data, read-out pIC50
Sequence (Q7JHP9 whole entry): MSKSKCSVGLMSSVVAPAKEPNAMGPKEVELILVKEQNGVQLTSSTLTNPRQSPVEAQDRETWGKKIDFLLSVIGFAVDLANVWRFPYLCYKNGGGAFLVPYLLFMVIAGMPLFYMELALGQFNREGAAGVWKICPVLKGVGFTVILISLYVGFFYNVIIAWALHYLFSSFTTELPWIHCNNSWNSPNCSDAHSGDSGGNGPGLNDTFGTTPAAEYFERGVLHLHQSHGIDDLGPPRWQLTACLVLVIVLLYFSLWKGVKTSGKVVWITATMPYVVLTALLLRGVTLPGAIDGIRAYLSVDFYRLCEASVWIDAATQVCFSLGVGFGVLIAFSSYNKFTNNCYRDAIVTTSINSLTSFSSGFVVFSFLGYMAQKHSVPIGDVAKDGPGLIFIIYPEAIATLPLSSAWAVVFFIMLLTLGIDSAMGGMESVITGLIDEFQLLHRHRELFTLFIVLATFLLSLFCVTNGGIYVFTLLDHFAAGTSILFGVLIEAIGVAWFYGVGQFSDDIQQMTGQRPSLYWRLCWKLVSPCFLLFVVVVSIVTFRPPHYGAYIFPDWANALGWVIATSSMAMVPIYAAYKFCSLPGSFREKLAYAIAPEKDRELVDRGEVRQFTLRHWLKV
pIC50: −log10 of the molar value.
Measure: pIC50

>>> quantitative_result("COC(=O)[C@@H]1C2CCC(C[C@H]1c1ccc(F)c(Cl)c1)S2 (stereo not given in full)")
8.15
>>> quantitative_result("COC(=O)[C@@H]1C2CCC(C[C@H]1c1ccc(Cl)c(Cl)c1)S2 (stereo not given in full)")
8.16
>>> quantitative_result("COC(=O)C1=C(c2ccc(I)cc2)CC2CCC1S2 (stereo not given)")
8.17
>>> quantitative_result("COC(=O)C1=C(c2ccc(Br)cc2)CC2CCC1S2 (stereo not given)")
8.04
>>> quantitative_result("COC(=O)C1=C(c2ccc(Cl)c(Cl)c2)CC2CCC1S2 (stereo not given)")
8.35
>>> quantitative_result("COC(=O)[C@@H]1C2CCC(C[C@H]1c1ccc3ccccc3c1)S2 (stereo not given in full)")
8.10
>>> quantitative_result("COC(=O)[C@@H]1C2CCC(C[C@H]1c1ccc(F)c(Cl)c1)[S+]2[O-] (stereo not given in full)")
7.64
>>> quantitative_result("COC(=O)[C@@H]1C2CCC(C[C@H]1c1ccc(Br)cc1)S2 (stereo not given in full)")
8.22
>>> quantitative_result("COC(=O)[C@@H]1C2CCC(C[C@@H]1c1ccc(F)cc1)S2 (stereo not given in full)")
7.42
>>> quantitative_result("COC(=O)C1=C(c2ccc(F)c(F)c2)CC2CCC1S2 (stereo not given)")
7.12
>>> quantitative_result("COC(=O)[C@@H]1C2CCC(C[C@H]1c1ccc(Br)cc1)[S+]2[O-] (stereo not given in full)")
7.85
>>> quantitative_result("COC(=O)[C@@H]1[C@@H]2[C@H](O)CC(C[C@@H]1c1ccc(Cl)c(Cl)c1)N2C")
5.57
>>> quantitative_result("COC(=O)C1=C(c2ccc(Cl)c(Cl)c2)CC2CC[C@@H]1S2")
8.30
>>> quantitative_result("COC(=O)C1=C(c2ccc(Cl)c(Cl)c2)CC2CC[C@@H]1O2")
7.24
>>> quantitative_result("COC(=O)[C@@H]1C2CCC(C[C@H]1c1ccc(Cl)cc1)S2 (stereo not given in full)")
7.96
>>> quantitative_result("COC(=O)C1=C(c2ccc(Cl)c(Cl)c2)CC2CCC1C2 (stereo not given)")
8.15
>>> quantitative_result("COC(=O)[C@@H]1C2CCC(C[C@H]1c1ccccc1)[S+]2[O-] (stereo not given in full)")
6.00
>>> quantitative_result("COC(=O)[C@@H]1[C@@H]2[C@H](O)CC(C[C@H]1c1ccc(Cl)c(Cl)c1)N2C")
6.32
>>> quantitative_result("COC(=O)C1=C(c2ccc(Cl)cc2)CC2CCC1S2 (stereo not given)")
7.89
>>> quantitative_result("COC(=O)[C@@H]1C2CCC(C[C@@H]1c1ccc(Cl)c(F)c1)S2 (stereo not given in full)")
8.22

====

# Organism: Macaca mulatta
# Protocol Description: Selectivity for rhesus monkey DAT over rhesus monkey SERT
Measure: Ratio IC50

>>> result("COC(=O)[C@@H]1C2CCC(C[C@@H]1c1ccccc1)S2 (stereo partly specified)")
"> 29"
>>> result("COC(=O)[C@@H]1C2CCC(C[C@H]1c1ccccc1)S2 (stereo partly specified)")
"> 57"
>>> result("COC(=O)C1=C(c2ccccc2)CC2CCC1S2 (stereo unspecified)")
"> 11"
>>> result("COC(=O)C1=C(c2ccc(Cl)cc2)CC2CCC1S2 (stereo unspecified)")
"> 770"
>>> result("COC(=O)C1=C(c2ccc(I)cc2)CC2CCC1S2 (stereo unspecified)")
"> 1300"
>>> result("COC(=O)C1=C(c2ccc(Br)cc2)CC2CCC1S2 (stereo unspecified)")
"> 2750"
